Attribute: activity at 280 µM
TARGET_OR_TEST_SYSTEM: LOX2 (Arabidopsis thaliana)
Sequence (P38418 71-896): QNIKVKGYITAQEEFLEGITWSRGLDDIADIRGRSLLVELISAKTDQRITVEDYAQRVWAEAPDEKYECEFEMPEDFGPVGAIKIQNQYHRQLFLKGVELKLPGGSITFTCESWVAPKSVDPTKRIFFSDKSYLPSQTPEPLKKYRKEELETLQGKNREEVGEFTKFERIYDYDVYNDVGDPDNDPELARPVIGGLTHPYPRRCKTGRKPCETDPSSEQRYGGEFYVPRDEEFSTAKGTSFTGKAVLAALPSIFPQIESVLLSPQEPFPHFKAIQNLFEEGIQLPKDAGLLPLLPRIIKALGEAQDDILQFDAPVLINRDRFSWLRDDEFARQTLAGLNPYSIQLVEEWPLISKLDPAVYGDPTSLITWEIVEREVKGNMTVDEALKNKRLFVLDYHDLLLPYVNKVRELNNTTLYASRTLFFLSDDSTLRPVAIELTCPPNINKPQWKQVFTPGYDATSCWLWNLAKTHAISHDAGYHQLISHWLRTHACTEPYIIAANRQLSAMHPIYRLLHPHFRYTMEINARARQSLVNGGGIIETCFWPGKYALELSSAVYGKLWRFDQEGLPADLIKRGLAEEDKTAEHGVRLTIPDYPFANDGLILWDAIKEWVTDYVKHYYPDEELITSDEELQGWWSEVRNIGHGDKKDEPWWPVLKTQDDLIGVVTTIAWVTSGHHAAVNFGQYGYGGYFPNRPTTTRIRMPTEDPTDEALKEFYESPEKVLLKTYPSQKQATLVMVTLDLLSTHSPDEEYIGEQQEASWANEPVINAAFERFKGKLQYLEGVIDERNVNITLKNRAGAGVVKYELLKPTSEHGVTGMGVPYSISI
ASSAY_NOTES: LOX2 activity, oxygen electrode (polarography)
Assay type: biochemical
Set-up: made in house; host or cells: E. coli Nico21(DE3), pET15b
EXPERIMENTAL_CONDITIONS: enzyme incubated with 280 µM chemical (1/10 vol of 2.8 mM), injected into 30 µM LeA, 50 mM Tris-HCl pH 7.2; vs solvent control; read-out: Polarography Relative Activity (%) LOX2
Report only the number, with the unit % understood.

Incoming: Complete the entry with activity at 280 µM for CCC=CCC1C(=O)C=CC1CCCCCCCC(=O)O (stereo not drawn) [12-OPDA, cis-(+)-12-oxophytodienoic acid]
Outgoing: 64
